target: chemokine receptors on THP-1 cells; test: estimated ka for binding to THP-1 cells (column 'average ED50', peptide 2 family footnote)
A collection of binders and their measured Kd
MEASURE: Kd

binder="HLKILNTPNCALQIV [Pep2(1-15)[SDF1]]" measure=Kd observed_result="1000 to 10000 nM"
binder="SYRRITSSKCPKEAV [Peptide 2(1-15)[MCP-1]]" measure=Kd observed_result="2000 nM"
binder="ELRVIESGPHCANTEI [Pep2(1-16)[IL8]]" measure=Kd observed_result="1000 to 10000 nM"
binder="DYFETSSQCSKPGV [Pep2(1-14)[MIP1α]]" measure=Kd observed_result="1000 to 10000 nM"
